TEST_NAME: Metabolic stability test in pooled human liver microsomes
Type: in vitro ADME
CONDITION_SET: human liver microsomes 0.5 mg protein/mL, 1 mmol/L NADPH, 37° C., 30 minutes
Procedure: Using a commercially available pooled human liver microsomes, a compound of the present invention was reacted for a constant time, a remaining rate was calculated by comparing a reacted sample and an unreacted sample, thereby, a degree of metabolism in liver was assessed. […]
READOUT_KIND: MS_h_% (remaining amount of compound after reaction, 0 minute = 100%)
State the answer as a number, implicitly in %.

Fill in: MS_h_% (remaining amount of compound after reaction, 0 minute = 100%) of CCc1nc2ccc(Cl)cn2c1C(=O)NCc1ccc(C2=C[C@H](C)N(c3ccc(OC(F)(F)F)cc3)CC2)c(F)c1.Cl is ___
71

Continue with Cc1nc2cc(Cl)ccn2c1C(=O)NCc1ccc(N2CCC(c3ccc(OC(F)(F)F)cc3)CC2)c(F)c1.Cl
89

Continue with COc1ccn2nc(C)c(C(=O)NCc3ccc(N4CCC(c5ccc(OC(F)(F)F)cc5)CC4)c(Cl)c3)c2c1.Cl
85

Continue with Cc1cn2c(C(=O)NCc3ccc(N4CCC(c5ccc(OC(F)(F)F)cc5)CC4)c(F)c3)c(C)nc2s1.Cl
91.7

Continue with CCc1nc2ccc(Cl)cn2c1C(=O)NCc1ccc(-c2ccc(OC(F)(F)F)cc2)nc1
80.9

Continue with Cc1ccn2c(C(=O)NCc3ccc(N4CCN(c5ccc(OC(F)(F)F)cc5)[C@@H](C)C4)c(F)c3)c(C(F)(F)F)nc2c1
85

Continue with Cc1ccn2c(C(=O)NCc3ccc(C4CCN(c5ccc(OC(F)(F)F)cc5F)CC4)c(F)c3)c(C)nc2c1
87

Continue with Cc1ccn2c(C(=O)NCc3ccc4oc(-c5ccc(OC(F)(F)F)cc5)nc4c3)c(C)nc2c1.Cl
81.1

Continue with CCc1nc2ccc(Cl)cn2c1C(=O)NCc1ccc(C2CCN(c3ccc(OCC4CC4)cn3)CC2)c(F)c1.Cl
59

Continue with CCc1nc2ccc(Cl)cn2c1C(=O)NCc1ccc(C2CCN(c3ccc(OCC(C)C)cn3)CC2)c(F)c1.Cl
65

Continue with [2H]c1c(C([2H])([2H])[2H])c([2H])c2nc(C)c(C(=O)NCc3ccc(C4CCN(c5ccc(OC(F)(F)F)cc5)CC4)c(F)c3)n2c1[2H]
93.7

Continue with CCc1nc2ccc(Cl)cn2c1C(=O)NCc1ccc(N2C[C@H](C)N(c3ccc(OC(F)(F)F)cc3)C[C@H]2C)c(F)c1
75

Continue with COc1ccn2nc(C)c(C(=O)NCc3cc(F)c(N4CCC(c5ccc(OC(F)(F)F)cc5)CC4)c(F)c3)c2c1.Cl
81

Continue with CCc1nc2cc(F)ccn2c1C(=O)NCc1ccc(N2C[C@H](C)N(c3ccc(OCC(F)(F)F)nc3)C[C@H]2C)c(F)c1.Cl
75

Continue with CCc1nc2cc(C)ccn2c1C(=O)NCc1ccc(Oc2cccc(C(F)(F)F)c2)cc1
66

Continue with Cc1cn2c(C(=O)NCc3ccc(-c4ccc(OCC(F)(F)F)cc4)c(F)c3)c(C)nc2s1
75.1

Continue with Cc1ccc2nc(C)c(C(=O)NCc3ccc(-c4ccc(C(F)(F)F)cc4)cc3)n2c1
72.6

Continue with CCc1nc2ccc(Cl)cn2c1C(=O)NCc1ccc(N2CCN(c3ccc(OC(F)(F)F)cc3)[C@@H](C)C2)c(Cl)c1.Cl
61

Continue with CC1=CN2C(=NC(C)C2C(=O)NCc2ccc3c(c2)OCCO3)C=C1 (stereo not drawn)
67.7

Continue with CCc1nc2cc(F)ccn2c1C(=O)NCc1ccc(N2C[C@H](C)N(c3ccc(OC(F)(F)F)cc3)C[C@H]2C)c(F)c1.Cl
86

Continue with Cc1ccn2c(C(=O)NCc3ccc(-c4ccc(OCC(F)(F)F)cc4)c(F)c3)c(C)nc2c1
94.6

Continue with Cc1nc2ccc(Cl)cn2c1C(=O)NCc1ccc(N2CCC(c3ccc(OC(F)(F)F)cc3)CC2)c(F)c1.Cl
95

Continue with CCc1nc2ccc(Cl)cn2c1C(=O)NCc1ccc(C2CCN(c3ccc(OC(F)(F)F)cc3)[C@@H](C)C2)c(F)c1.Cl (stereo partly drawn)
59

Continue with CCc1nc2cc(F)ccn2c1C(=O)NCc1ccc(O[C@H]2C[C@H](Oc3ccc(OC(F)(F)F)cc3)C2)c(F)c1.Cl
99.1

Continue with C[C@H]1CN(c2ccc(CNC(=O)c3c(C(F)(F)F)nc4ccc(Cl)cn34)cc2F)CCN1c1ccc(OC(F)(F)F)cc1 [Compound I-1-24]
62

Continue with CCc1nc2cc(F)ccn2c1C(=O)NCc1ccc(C2CCN(c3ccc(C)cc3)CC2)cc1F.Cl
73

Continue with Cc1ccc2nc(Cl)c(C(=O)NCc3ccc(N4CCN(c5ccc(OC(F)(F)F)cc5)[C@@H](C)C4)c(F)c3)n2c1.Cl
84
